Cited source for all entries: patent US20090105349A1

molecular target: androgen receptor in MDA-MB453-MMTV clone 54-19 cells (Homo sapiens); experiment: AR antagonist cell assay (MMTV-luciferase reporter); type: cell-based; conditions: read-out: AR Cell IC50; MDA-MB453-MMTV clone 54-19, inhibition of DHT induced luciferase, 17 hr; mean of multiple tests
Recorded IC50 determines the group label, using bottom bin (below 20 nM), middle bin (20 nM to below 50 nM), top bin (50 nM or more)

Q: Quick check: band for CC(=O)c1c(O)cccc1Oc1ccc(C#N)c(C(F)(F)F)c1
A: bottom bin

Q: Quick check: band for CSc1ccccc1Oc1ccc(C#N)cc1Cl
A: middle bin

Q: Quick check: band for COc1cc(F)ccc1Oc1ccc(C#N)cc1Cl
A: top bin

Q: Quick check: band for N#Cc1ccc(Oc2cccc3ccccc23)cc1Cl
A: top bin

Q: Quick check: band for COc1c(O)cccc1Oc1ccc(C#N)c(C(F)(F)F)c1
A: bottom bin

Q: Quick check: band for COc1cccc(F)c1Oc1ccc(C#N)cc1Cl
A: top bin

Q: Quick check: band for N#Cc1ccc(Oc2c(F)cccc2F)cc1C(F)(F)F
A: bottom bin

Q: Quick check: band for COc1cc(F)ccc1Oc1ccc(C#N)c(Cl)c1
A: bottom bin

Q: Quick check: band for COc1cccc(Oc2ccc(C#N)c(Cl)c2)c1OC
A: middle bin

###

Hi there, I'd appreciate the recorded log10 of IC50 for every entry that follows.
biological target: androgen receptor in MDA-MB453-MMTV clone 54-19 cells (Homo sapiens, UniProt P10275); assay: AR antagonist cell assay (MMTV-luciferase reporter); format: cell-based; conditions: MDA-MB453-MMTV clone 54-19, inhibition of DHT induced luciferase, 17 hr; mean of multiple tests; read-out: AR Cell IC50
Log scale reminder: IC50 in nM, then log10 taken.

Short answer for Cc1ccc(C(C)C)c(Oc2ccc(C#N)c(Cl)c2)c1 [Example 49] : log10 of IC50 was 2.89

Short answer for N#Cc1ccc(Oc2ccc(F)cc2)cc1Cl [Example 52] : log10 of IC50 was 2.42

Short answer for N#Cc1ccc(Oc2ccc(C#N)c(Cl)c2)cc1 [Example 67, 2-Chloro-(4-cyano-phenoxy)-benzonitrile] : log10 of IC50 was 2.53

Short answer for COc1cc(Oc2ccccc2C)ccc1C#N [Example 117, 2-Methoxy-4-o-tolyloxy-benzonitrile] : log10 of IC50 was 1.41

Short answer for Cc1ccc(F)c(Oc2ccc(C#N)c(C(F)(F)F)c2)c1F [Example 118] : log10 of IC50 was 2.40

Short answer for CCc1ccccc1Oc1ccc(C#N)c(Cl)c1 [Example 35] : log10 of IC50 was 2.56

Short answer for C=CCc1ccccc1Oc1ccc(C#N)c(Cl)c1 [Example 51] : log10 of IC50 was 2.40

Short answer for N#Cc1ccc(Oc2cccc3ccccc23)cc1C(F)(F)F [Example 97] : log10 of IC50 was 2.74

Short answer for CC(C)Oc1ccccc1Oc1ccc(C#N)c(C(F)(F)F)c1 [Example 110] : log10 of IC50 was 2.31

Short answer for N#Cc1ccc(Oc2ccc(C#N)c(C(F)(F)F)c2)cc1C#N [Example 100] : log10 of IC50 was 2.91

Short answer for COc1cccc(Oc2ccc(C#N)c(Cl)c2)c1 [Example 37] : log10 of IC50 was 2.14

Short answer for CCOc1cc(C)ccc1Oc1ccc(C#N)cc1Cl [Example 30] : log10 of IC50 was 2.94

Short answer for CC(O)c1cc(F)ccc1Oc1ccc(C#N)c(C(F)(F)F)c1 (stereo not shown) [Example 119] : log10 of IC50 was 2.66

Short answer for COc1cc(C#N)ccc1Oc1ccccc1C [Example 125, 3-Methoxy-4-o-tolyloxy-benzonitrile] : log10 of IC50 was 1.70

Short answer for Cc1ccc(Oc2ccc(C#N)c(Cl)c2)c(C)c1 [Example 45] : log10 of IC50 was 2.86

Short answer for N#Cc1ccc(Oc2ccccc2C(F)(F)F)cc1Cl [Example 64] : log10 of IC50 was 2.93

Short answer for N#Cc1ccc(Oc2ccc(F)cc2F)cc1Cl [Example 36] : log10 of IC50 was 2.16

Short answer for N#Cc1ccc(Oc2ccccc2C2CCCC2)cc1C(F)(F)F [Example 104] : log10 of IC50 was 2.77

Short answer for COc1ccccc1Oc1ccc(C#N)cc1Cl [Example 10] : log10 of IC50 was 2.50

Short answer for CCCC(=O)Nc1ccc(Oc2ccc(C#N)c(Cl)c2)cc1 [Example 61] : log10 of IC50 was 2.73

Short answer for N#Cc1ccc(Oc2ccccc2F)c(Cl)c1 [Example 27] : log10 of IC50 was 1.66

Short answer for N#Cc1ccc(Oc2ccccc2)cc1Cl [Example 66, 2-Chloro-4-phenoxy-benzonitrile] : log10 of IC50 was 2.52

Short answer for CCc1cccc(Oc2ccc(C#N)c(Cl)c2)c1 [Example 34] : log10 of IC50 was 2.97

Short answer for CC(=O)c1ccccc1Oc1ccc(C#N)c(C(F)(F)F)c1 [Example 88] : log10 of IC50 was 2.09

Short answer for COc1ccccc1Oc1ccc(C#N)c(Cl)c1 [Example 42] : log10 of IC50 was 2.59

Short answer for C=CCc1cccc(C)c1Oc1ccc(C#N)c(Cl)c1 [Example 44] : log10 of IC50 was 2.45

Short answer for COc1ccc(Oc2ccc(C#N)c(C(F)(F)F)c2)c(C(C)=O)c1 [Example 90] : log10 of IC50 was 2.68

Short answer for CSc1ccc(Oc2ccc(C#N)c(Cl)c2)c(C)c1 [Example 59] : log10 of IC50 was 2.24

Short answer for Cc1cccc(Oc2ccc(C#N)c(Cl)c2)c1 [Example 41, 2-Chloro-4-m-tolyloxy-benzonitrile] : log10 of IC50 was 2.08

Short answer for CCCc1ccccc1Oc1ccc(C#N)cc1Cl [Example 17] : log10 of IC50 was 2.94

Short answer for N#Cc1ccc(Oc2cccc3c2CCCC3)cc1Cl [Example 32] : log10 of IC50 was 2.67

Short answer for CC(C)c1ccccc1Oc1ccc(C#N)c(Cl)c1 [Example 39] : log10 of IC50 was 2.40

###

Hi there, I'd appreciate the recorded log10 of IC50 for every entry that follows.
Target: androgen receptor in MDA-MB453-MMTV clone 54-19 cells (Homo sapiens)
Sequence (P10275 1-920 Q868H): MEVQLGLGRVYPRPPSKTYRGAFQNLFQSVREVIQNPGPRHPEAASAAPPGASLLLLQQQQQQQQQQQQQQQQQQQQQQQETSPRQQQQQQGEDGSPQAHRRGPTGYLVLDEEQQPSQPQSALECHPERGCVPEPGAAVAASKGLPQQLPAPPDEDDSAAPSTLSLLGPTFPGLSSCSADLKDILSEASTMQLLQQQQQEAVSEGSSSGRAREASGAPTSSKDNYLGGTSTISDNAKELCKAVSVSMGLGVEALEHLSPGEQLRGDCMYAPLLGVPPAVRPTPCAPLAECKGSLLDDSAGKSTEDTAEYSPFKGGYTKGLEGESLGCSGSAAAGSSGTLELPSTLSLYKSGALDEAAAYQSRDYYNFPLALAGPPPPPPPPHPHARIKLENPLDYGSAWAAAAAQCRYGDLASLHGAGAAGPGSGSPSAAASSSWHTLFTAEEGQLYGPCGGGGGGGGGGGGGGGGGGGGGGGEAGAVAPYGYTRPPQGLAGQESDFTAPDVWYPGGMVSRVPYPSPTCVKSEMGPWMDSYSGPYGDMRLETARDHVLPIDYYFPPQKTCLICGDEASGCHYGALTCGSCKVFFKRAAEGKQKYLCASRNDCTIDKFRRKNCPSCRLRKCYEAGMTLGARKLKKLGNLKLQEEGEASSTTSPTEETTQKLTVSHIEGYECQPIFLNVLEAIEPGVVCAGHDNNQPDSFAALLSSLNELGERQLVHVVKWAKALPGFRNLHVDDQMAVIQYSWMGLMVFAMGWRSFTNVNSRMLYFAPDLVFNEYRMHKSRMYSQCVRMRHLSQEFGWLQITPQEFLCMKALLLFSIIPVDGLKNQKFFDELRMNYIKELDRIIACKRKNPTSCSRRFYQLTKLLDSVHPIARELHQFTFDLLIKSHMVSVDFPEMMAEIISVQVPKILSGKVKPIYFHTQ
Assay: AR antagonist cell assay (MMTV-luciferase reporter)
Type: cell-based
Conditions: read-out: AR Cell IC50; MDA-MB453-MMTV clone 54-19, inhibition of DHT induced luciferase, 17 hr; mean of multiple tests
Log scale reminder: IC50 in nM, then log10 taken.

Short answer for COc1ccc(C)cc1Oc1ccc(C#N)c(Cl)c1 : log10 of IC50 was 1.62

Short answer for N#CCOc1ccccc1Oc1ccc(C#N)c(C(F)(F)F)c1 : log10 of IC50 was 1.73

Short answer for N#Cc1ccc(Oc2ccc(O)cc2)cc1C(F)(F)F : log10 of IC50 was 1.79

Short answer for Cc1cc(F)ccc1Oc1ccc(C#N)c(Cl)c1 : log10 of IC50 was 1.86

Short answer for N#Cc1ccc(Oc2c(F)cccc2F)c(Cl)c1 : log10 of IC50 was 1.78

Short answer for N#Cc1ccc(Oc2cccc(O)c2)cc1C(F)(F)F : log10 of IC50 was 1.79

Short answer for COc1cccc(OC)c1Oc1ccc(C#N)c(Cl)c1 : log10 of IC50 was 1.28

Short answer for COc1cccc(OC)c1Oc1ccc(C#N)cc1Cl : log10 of IC50 was 1.73

Short answer for CC(C)Oc1ccccc1Oc1ccc(C#N)c(Cl)c1 : log10 of IC50 was 0.60

Short answer for N#Cc1ccc(Oc2ccc(F)cc2F)cc1C(F)(F)F : log10 of IC50 was 1.75

Short answer for N#Cc1ccc(Oc2ccccc2C#N)cc1Cl : log10 of IC50 was -0.49

Short answer for COc1cccc(Oc2ccc(C#N)c(C(F)(F)F)c2)c1OC : log10 of IC50 was 1.45
